Data provenance: patent US20260209260A1

Tested on: NIH-3T3 fibroblast cells (non-tumor)
testSummary: Cell viability assay (MTT), dark and blue light
Assay type: cell-based, Murine
testConditions: NIH-3T3, dark; read-out: GI50
parameterMeasured: GI50 (µM)

• COC(=O)c1ccc2[n+](c1)[Ir-3]13([c]4ccccc4-2)([c]2ccccc2-c2ccc(C(=O)OC)c[n+]21)[c]1n(CCCNC(=O)[c-]2cccc2)cc[n+]1-c1cccc[n+]13.F[P-](F)(F)(F)(F)F.[Fe+2].c1cc[cH-]c1 [IV-e] = 32.3

---

Test system: non-tumor cells (NIH-3T3 and MC3T3)
testSummary: Cell viability assay (MTT), summary over the non-tumor models
Assay type: cell-based, Murine
testConditions: dark vs blue light 458 nm
parameterMeasured: mean PI value in NIH-3T3 and MC3T3 non-tumoral cells (fold)

* F[P-](F)(F)(F)(F)F.O=C(NCCCn1cc[n+]2[c]1[Ir-3]13([c]4ccccc4-c4c5ccccc5cc[n+]41)([c]1ccccc1-c1c4ccccc4cc[n+]13)[n+]1ccccc1-2)[c-]1cccc1.[Fe+2].c1cc[cH-]c1 | 2.8
* F[P-](F)(F)(F)(F)F.O=C(NCCCn1cc[n+]2[c]1[Ir-3]13([c]4c(sc5ccccc45)-c4cccc[n+]41)([c]1c(sc4ccccc14)-c1cccc[n+]13)[n+]1ccccc1-2)[c-]1cccc1.[Fe+2].c1cc[cH-]c1 | 2.8
* F[P-](F)(F)(F)(F)F.O=C(NCCCn1cc[n+]2[c]1[Ir-3]13([c]4cccc5ccc6ccc[n+]1c6c45)([c]1cccc4ccc5ccc[n+]3c5c14)[n+]1ccccc1-2)[c-]1cccc1.[Fe+2].c1cc[cH-]c1 | 2.8
* F[P-](F)(F)(F)(F)F.O=C(NCCCn1cc[n+]2[c]1[Ir-3]13([c]4ccccc4-c4sc5ccccc5[n+]41)([c]1ccccc1-c1sc4ccccc4[n+]13)[n+]1ccccc1-2)[c-]1cccc1.[Fe+2].c1cc[cH-]c1 | 2.8

---

Tested on: PC-3 prostate cancer cells (PSMA-negative)
testSummary: Cell viability assay (MTT), dark and blue light
Format: cell-based, Human
testConditions: 8 h in the dark, blue light 458 nm 10 min, then dark up to 72 h; read-out: GI50 PC-3 Blue
parameterMeasured: GI50 (µM)

* F[P-](F)(F)(F)(F)F.O=C(O)CC[C@H](NC(=O)N[C@@H](CCCCNC(=O)CCn1cc[n+]2[c]1[Ir-3]13([c]4ccccc4-c4sc5ccccc5[n+]41)([c]1ccccc1-c1sc4ccccc4[n+]13)[n+]1ccccc1-2)C(=O)O)C(=O)O [III-k] | 2.1
* F[P-](F)(F)(F)(F)F.O=C(O)CC[C@H](NC(=O)N[C@@H](CCCCNC(=O)CCn1cc[n+]2[c]1[Ir-3]13([c]4cccc5ccc6ccc[n+]1c6c45)([c]1cccc4ccc5ccc[n+]3c5c14)[n+]1ccccc1-2)C(=O)O)C(=O)O [III-i] | 8.7
* F[P-](F)(F)(F)(F)F.O=C(O)CC[C@H](NC(=O)N[C@@H](CCCCNC(=O)CCn1cc[n+]2[c]1[Ir-3]13([c]4ccccc4-c4c5ccccc5cc[n+]41)([c]1ccccc1-c1c4ccccc4cc[n+]13)[n+]1ccccc1-2)C(=O)O)C(=O)O [III-h] | 0.68
* F[P-](F)(F)(F)(F)F.O=C(O)CC[C@H](NC(=O)N[C@@H](CCCCNC(=O)CCn1cc[n+]2[c]1[Ir-3]13([c]4ccccc4-c4ccc5ccccc5[n+]41)([c]1ccccc1-c1ccc4ccccc4[n+]13)[n+]1ccccc1-2)C(=O)O)C(=O)O [III-g] | 48.7

---

Recorded GI50 for the following compounds
System: 22rV1 prostate cancer cells (PSMA-positive)
testSummary: Cell viability assay (MTT), dark and blue light
Format: cell-based, Human
testConditions: 22Rv1, dark; read-out: GI50
parameterMeasured: GI50 (µM)

- F[P-](F)(F)(F)(F)F.O=C(O)CC[C@H](NC(=O)N[C@@H](CCCCNC(=O)CCn1cc[n+]2[c]1[Ir-3]13([c]4ccccc4-c4sc5ccccc5[n+]41)([c]1ccccc1-c1sc4ccccc4[n+]13)[n+]1ccccc1-2)C(=O)O)C(=O)O: 5.1
- F[P-](F)(F)(F)(F)F.O=C(O)CC[C@H](NC(=O)N[C@@H](CCCCNC(=O)CCn1cc[n+]2[c]1[Ir-3]13([c]4cccc5ccc6ccc[n+]1c6c45)([c]1cccc4ccc5ccc[n+]3c5c14)[n+]1ccccc1-2)C(=O)O)C(=O)O: 12.5
- F[P-](F)(F)(F)(F)F.O=C(O)CC[C@H](NC(=O)N[C@@H](CCCCNC(=O)CCn1cc[n+]2[c]1[Ir-3]13([c]4c(sc5ccccc45)-c4cccc[n+]41)([c]1c(sc4ccccc14)-c1cccc[n+]13)[n+]1ccccc1-2)C(=O)O)C(=O)O: 9.9
- F[P-](F)(F)(F)(F)F.O=C(O)CC[C@H](NC(=O)N[C@@H](CCCCNC(=O)CCn1cc[n+]2[c]1[Ir-3]13([c]4ccccc4-c4c5ccccc5cc[n+]41)([c]1ccccc1-c1c4ccccc4cc[n+]13)[n+]1ccccc1-2)C(=O)O)C(=O)O: 4.1

---

Test system: NIH-3T3 fibroblast cells (non-tumor)
testSummary: Cell viability assay (MTT), dark and blue light
Type: cell-based, Murine
testConditions: NIH-3T3, dark; read-out: GI50
Protocol: Cells were grown in humidified incubators at 37° C. in 5% CO2. […] MTT reagent (3-(4,5-dimethylthiazol-2-yl)-2,5-diphenyltetrazolium bromide) was used to determine cell death as originally described by Mosmann. […] The concentration of the complexes was calculated based on the elemental composition of the complexes determined by the elemental analyses. […] All the results were calculated from data obtained in at least three independent experiments performed in triplicate. […]
Recorded GI50 for the following molecules
parameterMeasured: GI50 (µM)

* F[P-](F)(F)(F)(F)F.O=C(NCCCn1cc[n+]2[c]1[Ir-3]13([c]4ccccc4-c4sc5ccccc5[n+]41)([c]1ccccc1-c1sc4ccccc4[n+]13)[n+]1ccccc1-2)[c-]1cccc1.[Fe+2].c1cc[cH-]c1 [IV-k] | 18.7
* F[P-](F)(F)(F)(F)F.O=C(NCCCn1cc[n+]2[c]1[Ir-3]13([c]4c(sc5ccccc45)-c4cccc[n+]41)([c]1c(sc4ccccc14)-c1cccc[n+]13)[n+]1ccccc1-2)[c-]1cccc1.[Fe+2].c1cc[cH-]c1 [IV-j] | 62.8

---

Recorded τ1 emission lifetime for the following compounds
testSummary: Emission lifetime measurement
Assay type: physicochemical
parameterMeasured: τ1 emission lifetime

- F[P-](F)(F)(F)(F)F.O=C(CCCC[C@@H]1SC[C@@H]2NC(=O)N[C@@H]21)NCCCn1cc[n+]2[c]1[Ir-3]13([c]4ccccc4-c4ccc5ccccc5[n+]41)([c]1ccccc1-c1ccc4ccccc4[n+]13)[n+]1ccccc1-2: 203 ns
- COC(=O)c1cccc2[c]1[Ir-3]13([c]4c(C(=O)OC)cccc4-c4cccc[n+]41)([c]1n(CCCNC(=O)CCCC[C@@H]4SC[C@@H]5NC(=O)N[C@@H]54)cc[n+]1-c1cccc[n+]13)[n+]1ccccc1-2.F[P-](F)(F)(F)(F)F: 184 ns
- COC(=O)c1ccc2[c](c1)[Ir-3]13([c]4cc(C(=O)OC)ccc4-c4cccc[n+]41)([c]1n(CCCNC(=O)[c-]4cccc4)cc[n+]1-c1cccc[n+]13)[n+]1ccccc1-2.F[P-](F)(F)(F)(F)F.[Fe+2].c1cc[cH-]c1: 195 ns
- COC(=O)c1ccc2[c](c1)[Ir-3]13([c]4cc(C(=O)OC)ccc4-c4cccc[n+]41)([c]1n(CCCNC(=O)c4ccccc4SC/C=C(\C)CC/C=C(\C)CCC=C(C)C)cc[n+]1-c1cccc[n+]13)[n+]1ccccc1-2.F[P-](F)(F)(F)(F)F: 319 ns
- CC(C)=CCC/C(C)=C/CC/C(C)=C/CSc1ccccc1C(=O)NCCCn1cc[n+]2[c]1[Ir-3]13([c]4ccccc4-c4cccc[n+]41)([c]1ccccc1-c1cccc[n+]13)[n+]1ccccc1-2.F[P-](F)(F)(F)(F)F: 210 ns
- F[P-](F)(F)(F)(F)F.O=C(NCCCn1cc[n+]2[c]1[Ir-3]13([c]4ccccc4-c4sc5ccccc5[n+]41)([c]1ccccc1-c1sc4ccccc4[n+]13)[n+]1ccccc1-2)[c-]1cccc1.[Fe+2].c1cc[cH-]c1: 212 ns
- Cc1ccc2[c](c1)[Ir-3]13([c]4cc(C)ccc4-c4cccc[n+]41)([c]1n(CCCNC(=O)[c-]4cccc4)cc[n+]1-c1cccc[n+]13)[n+]1ccccc1-2.F[P-](F)(F)(F)(F)F.[Fe+2].c1cc[cH-]c1: 197 ns
- F[P-](F)(F)(F)(F)F.O=C(O)CC[C@H](NC(=O)N[C@@H](CCCCNC(=O)CCn1cc[n+]2[c]1[Ir-3]13([c]4ccccc4-c4c5ccccc5cc[n+]41)([c]1ccccc1-c1c4ccccc4cc[n+]13)[n+]1ccccc1-2)C(=O)O)C(=O)O: 215 ns
